- assay: soluble on expression in E. coli; label from the status in PepcDB or PDB records
measure: soluble on expression in E. coli

>  <sequence code>
TFRLVIACPDGVGIVAKVSNFLATYNGWITEASHHSDNDNGWFFMRHEIRADSLPFDLDGFRQAFAPIAREFSMEWRITDSEVKKRVVLMASKESHCLADLLHRWHSGELDCEIPCVIANHDDLRSMVEWHGIPYFHVPVDPQDKQPAFDEVSRLIDEHGADCIVLARYMQILPPDLCRKYAHQVINIHHSFLPSFIGAKPYHQASKRGVKLIGATSHYVTEELDAGPIIEQDVVRVTHRDNVEDMVRLGKDVEKLVLARGLRYHLEDRVLVH

>  <result>
not soluble

$$$$
>  <sequence code>
GRKQEPFENVTLDVEEQHQGSVMQALGERKGDLKNMNPDGKGRVRLDYVIPSRGLIGFRSEFMTMTSGTGLLYSTFSHYDDVRPGEVGQRNNGVLISNGQGKAVAFALFGLQDRGKLFLGHGAEVYEGQI

>  <result>
not soluble

$$$$
>  <sequence code>
MNLDDIINSMTPEVYQRLSTAVELGKWPDGVALTEEQKENCLQLVMLWQARHNTEAQHMTIDTNGQMVMKSKQQLKEDFGISAKPIAMFK

>  <result>
not soluble

$$$$

----------
- assay: soluble on expression in E. coli; label from the status in PepcDB or PDB records
measure: soluble on expression in E. coli

Answered examples (4):
>  <sequence code>
MGSDKIHHHHHHMNRGKALQLVKPHLTEHRYQHTIGVMETAIDLAKLYGADQQKAELAAIFHDYAKFRDKNEMRTLIREKLSQQDILFYGDELLHAPCGAYYVREEVGIEDEDVLQAIRFHTTGRPNMSLLEKIIFLADYIEPNRQFPGVEKVRTQAKTDLNGAIISSLVNTITFLLKKNQPIYPDTLATYNQLLLEQK

>  <result>
not soluble

$$$$
>  <sequence code>
MSKFGGATAKVIKGALKVRQTRAALTLTNEAVSRIRVLLAQQNDANALKIGVRQKGCNGLTYTLEYAKDKQKFDEEVEQDGIKVWIEPKAQLSLLGSEMDYVTDKLSSEFVFRNPNIKGTCGCGESFSI

>  <result>
not soluble

$$$$
>  <sequence code>
MLISLIVPIYNVEGFLPRCLDSIIKQEYQNLEIVLVNDGSTDQSGLICDQYAEKDERFIVFHKENGGVSSARNVGLNKANGNYIGFVDPDDWIEPNMINKLYELIIQHKADIAMCGYVKEDINGLLISRPVELSTKILNKEDTLNSILNPNDFRGFLCNKLFSVDLFRKKNLYLDEDIHFCEDLLFCCQAILESKQIVYDSTPYYHYIIHNNNASKSNFSFKKLTALNSLDNIINLLNDQKGIELEQYKNYYMHLNISLLMNGIHEDKIRRQDKERLKKNLYKFKINDLTSKFVKFSCVLARLNLNLYYFIWKNAKPSN

>  <result>
not soluble

$$$$
>  <sequence code>
MAVSATGFEGFEKRLEISFFETTDFLDPQGKSLRSLTKSQLDEILTPAECTIVSSLTNSFVDSYVLSESSLFVYPYKIIIKTCGTTKLLLSIPHILRLADSLCLTVKSVRYTRGSFIFPGAQSYPHRSFSEEVALLDDYFGKLNAGSKAFVMGGSDNNPQRWHVYSASSTEESAVCDKPVYTLEMCMTGLDNIKASVFFKTNSVSASEMTISSGIRNILPGSEICDFNFEPCGYSMNSIEGDAVSTIHVTPEDGFSYASFETVGYDLKALNFKELVDRVLVCFGPEEFSVAVHANLGTEVLASDCVADVNGYFSQERELEELGLGGSVLYQRFVKTVECCSPKSTLGFC

>  <result>
not soluble

$$$$

Report soluble on expression in E. coli for `LEADKCKEREEKIILVSSANEIDVRPCPLNPNEHKGTITWYKDDSKTPVSTEQASRIHQHKEKLWFVPAKVEDSGHYYCVVRNSSYCLRIKISAKFVENEPNLCYNAQAIFKQKLPVAGDGGLVCPYMEFFKNENNELPKLQWYKDCKPLLLDNIHFSGVKDRLIVMNVAEKHRGNYTCHASYTYLGKQYPITRVIEFITLEENKPTRPVIVSPANETMEVDLGSQIQLICNVTGQLSDIAYWKWNGSVIDEDDPVLGEDYYSVENPANKRRSTLITVLNISEIESRFYKHPFTCFAKNTHGIDAAYIQLIYPVTNFQK`
soluble

Hello, please tell me recorded soluble on expression in E. coli for this one: `LTLRAGREQNIPMNLSDSWAARRPVTARVSAAEAVLADLRDAITSGELSVGERLPSEASLAARHGVSRSVIREALRSCHALGLTETKSGLGTFVVSDSIARDLDFGNYAANELVEARPHVEIPAAGWAAQRHTAEDLAALRGLVDQMRDEDDPLVWVSLDAQFHAFIARTSRNRVFESVIVDIREALTRQSETLNLVAGRQQKSNDEHDRIVEGIASGSYDKAARAMAEHLDAVRVALESVVGEAGPDRRQ`
not soluble

Using known records, supply soluble on expression in E. coli for `ATHYSVADRWGNAVSVTYTINASYGSAASIDGAGFLLNNEMDDFSIKPGNPNLYGLVGGDANAIEANKRPLSSMSPTIVLKNNKVFLVVGSPGGSRIITTVLQVISNVIDYNMNISEAVSAPRFHMQWLPDELRIEKFGMPADVKDNLTKMGYQIVTKPVMGDVNAIQVLPKTKGSVFYGSTDPRKEF`
soluble

Determine from records and report soluble on expression in E. coli for `MTTAHISGDWRTRYQHVTSFYFKTNHKVWCKVILSLLHTHIPMIIFIDMKGVNMDLIIQTFPLDGKTLYYVQCPVCKNNRILNSGANVSRIISDDTFRKLCGCTCDVKPATSKVEAPKQVKKAAVKKEAAPKRTGKVLTAVINGKEMTVKEIAEAYDISTSTVRQRINAGKPESEIIAPTKKK`
not soluble

Return reported soluble on expression in E. coli. Input sequence: `MGSDKIHHHHHHMTENKNEKLGWINGHWGVFKDLKVPINDRGLNFADGIFETILILNGIPQLLDEHLNRWEKSASILEMNSPPSKEWLISLVEDGINQAQLKNINGVIRINWTRGESEQRGIDISKTSLHSFWLEIDSYQPNFESISTIISQTERRNSFSRLSSCKTFSYNQGIQARIEAKNLGFNDALLLNSQGEICCATTANILVKRENNWLTPPSNSGCLPGIMRQRGIELNIIKEALIEATPKDNDEWFLINSLSCRPIQKINKKELKISTNPKEFWLSLLKI`
not soluble

Return soluble on expression in E. coli for the following sequence: `MGNCESRELVAQAKQNKIINTELDKAKKTDENIIKLLLLGAGESGKSTVLKQMKIIHNSGFSQEEISNKRNVVCANTVQAMGALLDGMKQLQFDFSTRVCNAHEKLIRETLNDKAEYGPFSDAMFNALTELWADKGVQCAYDKREFFYLHDSAKYFFDAIARVHTPNYVPTENDILHTRVPTMGVIEVNFTIKGKFFRVFDVGGQRSQRKKWIHCFDDAKAMIYVASLSEYDQVLLEDNTTNRMHESIQLFKQVINNKYFVNTSVILFLNKIDLFEEKIVTKKRSLGIAFESFSGPSQDLNAAVAFVEKKYRSMAENKEKNIYCHHTCATDTQQVQYVLDAVLDTILSTKLKGCGLY`
not soluble

Supply soluble on expression in E. coli value. Item: `MGERGVEMRLRIRFESAECEVELYEEWAPETVRAIADALPIKSTANRWGDEIYFTTQVAVEKEENSKDVVELGDVAYWIPGKAICLFFGKTPISDDKIRPASAVNVIGRIVNSMEGLKGVADGESVVVERA`
not soluble

Recall and state the measured soluble on expression in E. coli for `SVPQISQPHFLLDGLSSQPLFNDIAAGIPSITAYSKNGLKIEFTFERSNTNPSVTVITIQASNSTELDMTDFVFQAAVPKTFQLQLLSPSSSIVPAFNTGTITQVIKVLNPQKQQLRMRIKLTYNHKGSAMQDLAEVNNFPPQSWQ` .
soluble

----------
- assay: soluble on expression in E. coli; label from the status in PepcDB or PDB records

>  <sequence code>
MGSDKIHHHHHHMRIEITPISESALVCRLNAPSELGKQQKLWAFAAALGQHDRIEEVVVGMNNLTVFTRFDTDLATLADELQYVWEHTAVTDHQGKLVEIPVCYGGEYGPDLAEVAAFHQTVISEIVRRHTAQTYTVFMMGFQPGFPYLGGLPEALHTPRRAVPRTSVPAGSVGIGGSQTGVYPFASPGGWQIIGRTELPLFRADLNPPTLLAAGDQVRFVAERIEP

>  <soluble on expression in E. coli>
not soluble

$$$$
>  <sequence code>
MNRKIERMIIELEKECKAQNVELLLCATNFETGQGSTAFCGSVIGLAILLQKLVGDLKEQLSISESCDCPECVAEKAEDAANEKSMDELLTAFLRGELQ

>  <soluble on expression in E. coli>
not soluble

$$$$
>  <sequence code>
MEKKVGTDRVKRGMAQMQKGGVIMDVVNAEQAKIAEEAGAVAVMALERVPSDIRAAGGVARMADPRIVEEVMNAVSIPVMAKARIGHITEARVLEAMGVDYIDESEVLTPADDEFHLLKSDFTVPFVCGCRDIGEALRRIGEGAAMLRTKGEPGTGNIVEAVRHMRQVNGQIRQIASMTDDELMVAAKNFGAPYELVKEIKTLGKLPVVNFAAGGVATPADAALMMELGADGVFVGSGIFKSDNPAKFASAIVQATTYYTDYE

>  <soluble on expression in E. coli>
not soluble

$$$$

Source of measurements: the DeepSol protein solubility set
